- ASSAY PROCEDURE: Oral dose escalation study in rats (Study D of Ica; historical Study E of IVc)
- Assay type: in vivo
- EXPERIMENTAL CONTEXT: male, Sprague-Dawley, rat, plasma, po, 25 mg/kg

[
  {
    "SMILES STRING": "COc1cnc(-n2cnc(C)n2)c2[nH]cc(C(=O)C(=O)N3CCN(C(=O)c4ccccc4)CC3)c12",
    "UNIT SPEC": "µM",
    "Cmax": 98
  }
]

###

- ASSAY PROCEDURE: IV and PO pharmacokinetic studies of prodrug salts (Iab, Ibb, Icb) in the monkey, with historical parent data
- Format: in vivo, cynomolgus monkeys
- EXPERIMENTAL CONTEXT: male, cynomolgus monkey, plasma; monkey, parent after oral prodrug (~4-6 mg/kg parent equivalent); read-out: Tmax (hr), PO
- Experimental: The IV and PO studies of Iab were conducted in a crossover fashion in three male cynomolgus monkeys (11±1.2 kg, Charles River Biomedical Research Foundation, Houston, Tex.). There was a two-week washout period between the IV and PO studies. In the IV study, Iab was infused via the femoral vein at 1.3 mg/kg (free acid, or 1.1 mg/kg of IVa equivalent) over 5 min at a constant rate of 0.1 mL/kg/min. The concentration of the dosing solution was 2.6 mg/mL, and the dosing volume was 0.5 mL/kg. […]
# maps each entry to its Tmax
PARAMETER: Tmax (h)

[
  {
    "SMILES STRING": "COc1cnc(-n2cnc(C)n2)c2[nH]cc(C(=O)C(=O)N3CCN(C(=O)c4ccccc4)CC3)c12",
    "PARAMETER": "Tmax",
    "RECORDED RESULT": 0.92
  },
  {
    "SMILES STRING": "O=C(C(=O)N1CCN(C(=O)c2ccccc2)CC1)c1c[nH]c2c(-n3ccnn3)ncc(F)c12",
    "PARAMETER": "Tmax",
    "RECORDED RESULT": 1.5
  },
  {
    "SMILES STRING": "COc1ncc(OC)c2c(C(=O)C(=O)N3CCN(C(=O)c4ccccc4)CC3)c[nH]c12",
    "PARAMETER": "Tmax",
    "RECORDED RESULT": 0.83
  }
]
